EXPERIMENTAL SYSTEM: Brd4 bromodomain 1 (BRD4(1)) (Homo sapiens)
Construct: N-terminally His-tagged bromodomains (BRD4(1) at 20 nM and BRD4(2) at 100 nM)
MEASUREMENT NOTES: Inhibition of tetra-acetylated histone H4 binding to Brd4 bromodomain 1 (AlphaScreen)
EXPERIMENTAL PARAMETERS: His-tagged BRD4(1) at 20 nM, biotinylated tetra-acetylated histone H4 peptide, 30 min incubation
VALUE KIND: IC50

Exercise: I would be grateful if you could share the reported IC50 for COC1CCN(Cc2n[nH]c3ccc(-c4c(C)noc4C)cc23)CC1 .
Solution: 300 to 3000 nM

Exercise: I would be grateful if you could share the reported IC50 for Cc1noc(C)c1-c1ccc2[nH]nc(CN3CCOCC3)c2c1 .
Solution: 300 to 3000 nM

Exercise: I would be grateful if you could share the reported IC50 for COC(=O)c1ccc(Cn2c(C)nc3ncc(-c4c(C)noc4C)cc32)cc1 .
Solution: ≤ 300 nM

Exercise: I would be grateful if you could share the reported IC50 for CSc1cccc(Cn2c(C)nc3ncc(-c4c(C)noc4C)cc32)c1 .
Solution: ≤ 300 nM

Exercise: I would be grateful if you could share the reported IC50 for Cc1noc(C)c1-c1ccc2[nH]nc(CN3CCN(C)CC3)c2c1 .
Solution: 300 to 3000 nM

Exercise: I would be grateful if you could share the reported IC50 for Cc1noc(C)c1-c1ccc2[nH]nc(CN3CCC(C#N)CC3)c2c1 .
Solution: ≤ 300 nM

Exercise: I would be grateful if you could share the reported IC50 for Cc1noc(C)c1-c1ccc2[nH]nc(CN3CCC(F)(F)CC3)c2c1 .
Solution: ≤ 300 nM

Exercise: I would be grateful if you could share the reported IC50 for Cc1noc(C)c1-c1cnc2nc(C)n(Cc3cccc(C(=O)O)c3)c2c1 .
Solution: 3000 to 30000 nM

Exercise: I would be grateful if you could share the reported IC50 for Cc1nocc1-c1cnc2nc(C)n(Cc3ccccc3)c2c1 .
Solution: ≤ 300 nM

Exercise: I would be grateful if you could share the reported IC50 for COC(=O)c1cccc(Cn2c(C)nc3ncc(-c4c(C)noc4C)cc32)c1 .
Solution: ≤ 300 nM

Exercise: I would be grateful if you could share the reported IC50 for Cc1noc(C)c1-c1cnc2nc(C)n(Cc3ccc([S+](C)[O-])cc3)c2c1 (centres unmarked) .
Solution: ≤ 300 nM

Exercise: I would be grateful if you could share the reported IC50 for Cc1noc(CO)c1-c1cnc2nc(C)n(Cc3ccccc3)c2c1 .
Solution: ≤ 300 nM

Exercise: I would be grateful if you could share the reported IC50 for Cc1noc(C)c1-c1ccc2[nH]nc(CN3CCCCC3)c2c1 .
Solution: ≤ 300 nM

Exercise: I would be grateful if you could share the reported IC50 for CSc1ccc(Cn2c(C)nc3ncc(-c4c(C)noc4C)cc32)cc1 .
Solution: ≤ 300 nM
